The measured values listed here are drawn from patent US20230113037A1.

Target: AHR (Homo sapiens, UniProt P35869)
Construct: U87 MG glioblastoma cells (ATCC #HTB-14) endogenously expressing AHR; endogenous in cells; host or cells: U87 MG glioblastoma cells (ATCC #HTB-14)
Sequence (P35869 11-848): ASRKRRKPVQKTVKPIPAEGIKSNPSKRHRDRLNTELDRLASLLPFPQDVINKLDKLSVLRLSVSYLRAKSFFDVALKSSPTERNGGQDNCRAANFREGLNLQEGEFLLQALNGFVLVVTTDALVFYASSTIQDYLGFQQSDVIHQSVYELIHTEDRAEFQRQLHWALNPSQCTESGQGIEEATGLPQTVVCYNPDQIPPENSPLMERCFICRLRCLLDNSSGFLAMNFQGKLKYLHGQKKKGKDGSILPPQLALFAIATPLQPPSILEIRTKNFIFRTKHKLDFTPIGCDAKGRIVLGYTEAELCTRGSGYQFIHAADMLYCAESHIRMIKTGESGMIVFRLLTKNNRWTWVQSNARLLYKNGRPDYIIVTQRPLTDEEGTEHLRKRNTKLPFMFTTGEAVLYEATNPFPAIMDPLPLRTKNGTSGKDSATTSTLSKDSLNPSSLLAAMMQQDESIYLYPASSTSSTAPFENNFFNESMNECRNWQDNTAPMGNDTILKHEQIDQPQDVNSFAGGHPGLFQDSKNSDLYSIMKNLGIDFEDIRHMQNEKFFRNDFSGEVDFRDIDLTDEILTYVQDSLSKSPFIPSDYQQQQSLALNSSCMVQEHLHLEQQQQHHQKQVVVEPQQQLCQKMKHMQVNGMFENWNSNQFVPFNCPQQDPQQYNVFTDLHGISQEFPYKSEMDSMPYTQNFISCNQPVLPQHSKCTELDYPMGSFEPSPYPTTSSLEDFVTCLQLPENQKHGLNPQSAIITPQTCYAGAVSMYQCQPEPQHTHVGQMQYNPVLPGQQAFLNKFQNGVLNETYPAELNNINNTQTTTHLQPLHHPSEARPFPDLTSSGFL
Experiment: In vitro assay 1: antagonism in human cell line (AHR transactivation, firefly luciferase reporter, kynurenic acid prestimulated)
Type: cell-based
Settings: AHR Antagonism Human IC50 [M]
Hi there, I'd appreciate the recorded IC50 for every entry that follows.
Numbers only, in M.

Check out these entries, answers already filled in.
COc1cccc(-c2nc3c4cc(F)ccc4nc(NC4CCNC4=O)n3n2)c1 (single isomer, unassigned) [Example 187]
6.04e-08
O=C1NCCCC[C@H]1Nc1nc2c(C(F)(F)F)cccc2c2nc(-c3cn(C4CC4)nc3C(F)F)nn12
1.26e-09
O=C1NCCCC[C@H]1Nc1nc2ccccc2c2nc(-c3ccncc3F)nn12
1.64e-08
COc1ccc(-c2nc3c4cc(OC)c(OC)cc4nc(N[C@@H]4CCCCNC4=O)n3n2)cc1
3.65e-07
COc1ccc(-c2nc3c4ccccc4nc(N[C@@H]4CCCCNC4=O)n3n2)c(OC(F)(F)F)c1
3.53e-09

Exam item: Supply recorded IC50 for O=C1NCCCC[C@H]1Nc1nc2ccccc2c2nc(-c3ccc(F)cc3OC(F)(F)F)nn12 here.
Marked response: 4.64e-09
